// provenance: patent US4808409A

# Measurement description: Water solubility
# Format: physicochemical
Measurement label: solubility

| Molecule | Measurement label | Value reported |
| --- | --- | --- |
| CC(C)=CCC[C@@](C)(O)[C@H]1CCC(C)=CC1=O (relative stereo) [Hernandulcin] | solubility | ~500 µg/mL |

* * *

# Measurement description: Thermostability of neat hernandulcin at 100° C. by TLC
# Format: physicochemical
# Recorded conditions: neat compound; read-out: Compound remaining unchanged
Measurement label: remaining at 24 h

| Compound | Value reported |
| --- | --- |
| CC(C)=CCC[C@@](C)(O)[C@H]1CCC(C)=CC1=O (relative stereo) | ~60% |
